molecular target: human Nav1.8 (hNav1.8) ion channel (Homo sapiens); construct: expressed in transfected cells; assay: Inhibition of human Nav1.8 stably expressed in SH-SY-5Y cells (membrane potential dye fluorescence assay); assay type: cell-based; conditions: SH-SY-5Y hNav1.8 cells; FLIPR membrane potential dye; 10 μM pyrethroid, 250 nM TTX; test concentration range 100 μM-0.05 μM; read-out: hNav1.8 IC50
Sequence (Q9Y5Y9 whole entry): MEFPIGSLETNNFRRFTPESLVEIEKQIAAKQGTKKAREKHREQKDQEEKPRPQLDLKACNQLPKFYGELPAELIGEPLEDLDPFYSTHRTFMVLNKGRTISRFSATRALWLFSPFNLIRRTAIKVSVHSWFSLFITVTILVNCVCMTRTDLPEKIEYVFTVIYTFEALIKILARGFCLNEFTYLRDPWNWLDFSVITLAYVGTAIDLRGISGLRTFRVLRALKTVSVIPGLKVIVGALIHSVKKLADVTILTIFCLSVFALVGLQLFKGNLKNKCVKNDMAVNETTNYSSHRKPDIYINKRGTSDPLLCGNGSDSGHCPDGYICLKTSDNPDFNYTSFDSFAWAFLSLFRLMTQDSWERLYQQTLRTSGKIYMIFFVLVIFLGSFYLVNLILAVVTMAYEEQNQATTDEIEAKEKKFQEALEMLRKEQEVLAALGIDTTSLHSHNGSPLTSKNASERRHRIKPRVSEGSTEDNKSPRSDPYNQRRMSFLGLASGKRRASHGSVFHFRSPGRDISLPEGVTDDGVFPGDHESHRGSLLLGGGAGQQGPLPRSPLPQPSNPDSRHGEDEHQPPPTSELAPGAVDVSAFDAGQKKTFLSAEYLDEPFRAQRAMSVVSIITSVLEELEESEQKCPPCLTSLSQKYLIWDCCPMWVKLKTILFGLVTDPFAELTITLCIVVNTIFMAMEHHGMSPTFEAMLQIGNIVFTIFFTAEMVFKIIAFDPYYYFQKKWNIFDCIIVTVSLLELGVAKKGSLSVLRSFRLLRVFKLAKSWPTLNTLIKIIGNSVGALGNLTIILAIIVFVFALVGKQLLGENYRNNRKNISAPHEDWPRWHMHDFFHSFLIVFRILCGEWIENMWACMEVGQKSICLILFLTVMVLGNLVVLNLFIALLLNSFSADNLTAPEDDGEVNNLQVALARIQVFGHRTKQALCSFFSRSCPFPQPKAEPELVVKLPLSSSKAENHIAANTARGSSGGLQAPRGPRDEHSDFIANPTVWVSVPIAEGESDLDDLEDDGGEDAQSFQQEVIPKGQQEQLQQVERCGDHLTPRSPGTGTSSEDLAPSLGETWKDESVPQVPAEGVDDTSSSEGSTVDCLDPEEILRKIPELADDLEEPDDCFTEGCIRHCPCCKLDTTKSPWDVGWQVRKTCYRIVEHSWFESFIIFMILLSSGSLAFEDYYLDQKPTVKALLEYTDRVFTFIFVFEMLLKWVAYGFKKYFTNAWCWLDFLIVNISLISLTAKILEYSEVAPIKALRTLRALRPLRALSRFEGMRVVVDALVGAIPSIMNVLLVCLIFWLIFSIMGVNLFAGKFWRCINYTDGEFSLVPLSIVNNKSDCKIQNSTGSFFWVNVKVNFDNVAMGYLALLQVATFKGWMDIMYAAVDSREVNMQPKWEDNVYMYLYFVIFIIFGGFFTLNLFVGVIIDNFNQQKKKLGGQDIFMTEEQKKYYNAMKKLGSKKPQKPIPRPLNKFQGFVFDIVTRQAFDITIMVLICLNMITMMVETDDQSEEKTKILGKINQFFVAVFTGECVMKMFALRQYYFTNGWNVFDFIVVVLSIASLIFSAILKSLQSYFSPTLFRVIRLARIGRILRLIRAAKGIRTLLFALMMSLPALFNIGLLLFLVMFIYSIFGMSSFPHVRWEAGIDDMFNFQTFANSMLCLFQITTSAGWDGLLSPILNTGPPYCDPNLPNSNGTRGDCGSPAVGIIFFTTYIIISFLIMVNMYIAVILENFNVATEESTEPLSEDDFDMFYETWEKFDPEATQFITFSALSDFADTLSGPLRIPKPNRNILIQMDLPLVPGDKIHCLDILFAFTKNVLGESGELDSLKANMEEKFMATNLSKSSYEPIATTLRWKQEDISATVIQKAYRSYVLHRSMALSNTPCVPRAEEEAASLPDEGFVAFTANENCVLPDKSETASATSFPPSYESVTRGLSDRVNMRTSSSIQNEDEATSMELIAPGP
measured.metric: IC50 (µM)
Reply with just the number (in µM).

Consider the worked cases shown below.
• CC(c1ccccc1Cl)N1CC2CC1CN2C(=O)c1ccc(Oc2cccc(F)c2)cc1 (stereo not shown) [Example 169] = 0.84
• Cc1ccccc1C(C)N1CC2CC1CN2C(=O)Nc1ccc(Oc2ccccc2)cc1 (stereo not shown) [Example 32] = 0.71
• CC(c1ccccc1Cl)N1CC2CC1CN2C(=O)c1ccc(Oc2ccc(F)cc2)c(F)c1 (single isomer, unassigned) [Example 177] = 0.74
• CC(c1ccc(Cl)cc1Cl)N1CC2CC1CN2C(=O)Nc1ccc(C(F)(F)F)cc1 (stereo not shown) [Example 126] = 22.9
• CC(c1ccc(F)cc1)N1CC2CC1CN2C(=O)Nc1ccc(Oc2ccccc2)cc1 (stereo not shown) [Example 48] = 0.42

Test system human Nav1.8 (hNav1.8) ion channel (Homo sapiens); read-out IC50; what value for CC(Cc1ccc(Cl)cc1)N1CC2CC1CN2C(=O)Nc1ccc(C(F)(F)F)cc1 (stereo not shown) ?
0.68

Test system human Nav1.8 (hNav1.8) ion channel (Homo sapiens); read-out IC50; what value for CC(c1ccccc1Cl)N1CC2CC1CN2C(=O)Nc1ccc(Oc2ccccc2)cc1 (single isomer, unassigned) [Example 12] ?
0.36
